system: Vero E6 infected with SARS-CoV-2; test: inhibition of SARS-CoV-2 cytopathic effect; higher = more antiviral protection, active = above 15; settings: 100 nM; 48 h
measured.attribute: inhibition of SARS-CoV-2 cytopathic effect (%)
Give the number; % is assumed, so skip it.

Below: 3 molecules and their reported inhibition of SARS-CoV-2 cytopathic effect.
CCCCCCCC/C=C\CCCCCCCC(=O)NCc1ccc(O)c(OC)c1 [olvanil]
4.43
O=C(O)c1cccnc1 [niacin]
0.52
Cn1cc(C2=C(c3ccc(Cl)cc3Cl)C(=O)NC2=O)c2ccccc21
4.19

Value wanted: inhibition of SARS-CoV-2 cytopathic effect (Vero E6 infected with SARS-CoV-2) of entry CC(C)(Sc1ccc(CCN(CCCCC2CCCCC2)C(=O)NC2CCCCC2)cc1)C(=O)O -5.76

###

system: Vero E6 infected with SARS-CoV-2; experiment: morphology score (similarity to uninfected cells); higher = more like uninfected cells; settings: 24 h
Below, each of the molecules is paired with its reported morphology score value.

Worked cases, answers included:
CN(Cc1cnc2nc(N)nc(N)c2n1)c1ccc(C(=O)N[C@@H](CCC(=O)O)C(=O)O)cc1 [methotrexate] (10 µM)
-0.183
CCCCCN(CCCOC)C(=O)[C@@H](CCC(=O)O)NC(=O)c1ccc(Cl)c(Cl)c1 [dexloxiglumide] (10 µM)
0.0908
CCOc1nc2cccc(C(=O)OC(C)OC(=O)OC3CCCCC3)c2n1Cc1ccc(-c2ccccc2-c2nn[nH]n2)cc1 (configuration not stated) [candesartan-cilexetil] (10 µM)
0.13

Suppose we examine the molecule O=C(O)[C@H](Cc1ccccc1)NCc1ccc(Cl)cc1 (10 µM) ; what morphology score value has been reported? 0.0118

What value of measured morphology score is listed for C[C@H](NC(=O)c1sccc1OCc1ccc(Cl)cc1)c1ccccc1 (10 µM) ? 0.0842

Which value of morphology score has been reported for CCCCCCCCCCCCCCCC[n+]1ccn(Cc2ccccc2)c1C (0.833333 µM) in the records? 0.0516

Request the reported morphology score associated with CCn1cc(-c2cccc(C(F)(F)F)c2)c2sc(C(=N)NC3CCS(=O)(=O)CC3)cc2c1=O (10 µM) -0.122

morphology score for CCCCOc1ccc(C(=O)CCN2CCCCC2)cc1 [dyclonine] (10 µM) ? 0.347

Find the recorded morphology score belonging to O=C(O)CCCNC(=O)c1cccnc1 [pikamilone] (10 µM) and report it. 0.0672

Report morphology score for Cn1cnc2c(F)c(Nc3ccc(Br)cc3F)c(C(=O)NOCCO)cc21 [binimetinib] (0.833333 µM) please. -0.00339

Could you share which morphology score value was measured for O=C(O)CNC(=O)C1C(=O)N(C2CCCCC2)C(=O)N(C2CCCCC2)C1=O [daprodustat] (10 µM) ? 0.206

// returns reported morphology score for input CS(=O)(=O)c1ccc([C@@H](O)[C@@H](CO)NC(=O)C(Cl)Cl)cc1 [thiamphenicol] (10 µM) -0.172

Query (molecule): CN1CCc2cc3c(cc2[C@H]1[C@@H]1OC(=O)c2c1ccc1c2OCO1)OCO3 [bicuculline-(+)] (10 µM) ; field requested: morphology score -0.0434

Dear colleague, I am looking for the recorded morphology score of the following molecule: O=[N+]([O-])c1ccccc1S(=O)(=O)NCC1CCC(CNC[C@H]2CCc3ccccc3C2)CC1 (some centres not stated) (0.833333 µM) -0.0186

Can you share its morphology score? I mean this molecule: COC(=O)c1cc(OC)c2c(c1-c1c(CO)cc(OC)c3c1OCO3)OCO2 [bicyclol] (10 µM) 0.199

What value of morphology score has been reported for the following molecule? O=C(O[C@H]1C[N+]2(CCCOc3ccccc3)CCC1CC2)C(O)(c1cccs1)c1cccs1 [aclidinium] (10 µM) 0.136

Give the measured morphology score of NC(=O)c1nc(F)cnc1O [Favipiravir] (10 µM) . 0.0924
